The reported measurements were obtained from patent US20230374140A1.

Target: T1, NDC80 Peptide A … / HLA-A*02:01 complex (human)
T1 construct: whole, on cells; On peptide-pulsed T2 cells (HLA-A*02:01+); also called NDC80/HLA-A*02:01 complex; NDC80/MHC I
Assay: FACS, scFv phage on peptide-loaded T2 cells
Measurement label: binding result

Query block: Report measured binding result; entry is Clone 4 scFv phage clone (scFv, V domains shown) VH: QVQLQQWGAGLLKPSETLSLTCAVYGGSFSGYYWSWIRQPPGKGLEWIGEINHSGSTNYNPSLKSRVTISVDTSKNQFSLKLSSVTAADTAVYYCARGVPYDYWGQGTLVTVSS VL: QSVLTQPPSVSAAAGQKVTISCSGSRSNIGSNFVSWYQLLPGTAPRLLIYDNNVRPSGIPDRFSGSKSGSSATLGITGLQTGDEADYYCGTWDSSLIAGVFGGGTKLTVLG
Result block: binds

Query block: Report measured binding result; entry is Clone 5 scFv phage clone (scFv, V domains shown) VH: QLQLQESGPGLVKPSGTLSLTCAVSGGSISSSNWWSWVRQPPGKGLEWIGEIYHSGSTNYNPSLKSRVTISVDKSKNQFSLKLSSVTAADTAVYYCARFIYGSSSSQTDTWGQGTLVTVSS VL: QSVLTQPPSVSAAPGQKVTISCSGSSSNIGSNYIYWYQQFPGTAPKLLIYDDNKRPSGIPDRFSGSRSGTSATLGITGLQTGDEADYYCGTWDSPLVAWVFGGGTKLTVLG
Result block: binds
